target: human MCH-2R (human, UniProt Q969V1 1-340); test: cell-based or functional assay
Sequence (Q969V1 whole entry): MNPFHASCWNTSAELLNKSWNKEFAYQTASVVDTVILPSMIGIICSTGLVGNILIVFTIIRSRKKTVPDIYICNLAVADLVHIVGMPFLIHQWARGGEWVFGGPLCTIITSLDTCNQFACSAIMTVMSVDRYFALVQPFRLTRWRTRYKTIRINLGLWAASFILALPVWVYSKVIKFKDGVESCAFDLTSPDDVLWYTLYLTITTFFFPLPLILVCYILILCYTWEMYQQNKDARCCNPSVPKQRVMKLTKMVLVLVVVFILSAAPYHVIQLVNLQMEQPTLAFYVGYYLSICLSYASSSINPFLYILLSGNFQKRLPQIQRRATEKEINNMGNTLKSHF

| BINDER | Activation %, aequorin bioluminescence (%) |
| --- | --- |
| XCMLGRVYRPC (HELM PEPTIDE1{[ac].[dA].C.M.L.G.R.V.Y.R.P.C.[am]}$PEPTIDE1,PEPTIDE1,3:R3-12:R3$$$V2.0; SMILES CSCC[C@@H]1NC(=O)[C@@H](NC(=O)[C@@H](C)NC(C)=O)CSSC[C@@H](C(N)=O)NC(=O)[C@@H]2CCCN2C(=O)[C@H](CCCNC(=N)N)NC(=O)[C@H](Cc2ccc(O)cc2)NC(=O)[C@H](C(C)C)NC(=O)[C@H](CCCNC(=N)N)NC(=O)CNC(=O)[C@H](CC(C)C)NC1=O) [SEQ. ID. NO. 6 (Ac-D-Ala^6 analog of Ac-hMCH(6-16)-NH2)] | 51 |
